system: 276233-004-R-J1-PDC KRAS spheroids with HUVEC/MSC, viability; experiment: Anticancer human tumor 276233-004-R-J1-PDC patient-derived colon adenocarcinoma cell line growth inhibition [KRAS2]; settings: curve of first compound; second compound 3.16 µM;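 note: cells exposed to agents for seven days before viability read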
Reported values of IC50 for individual entries

These solved cases illustrate the format of a correct answer.
- compound: "CC(=O)OC12COC1CC(O)C1(C)C(=O)C(O)C3=C(C)C(OC(=O)C(O)C(NC(=O)OC(C)(C)C)c4ccccc4)CC(O)(C(OC(=O)c4ccccc4)C21)C3(C)C (stereo not drawn) + C=CC(=O)N1CCN(c2nc(OCC3CCCN3C)nc3c2CCN(c2cccc4cccc(C)c24)C3)CC1CC#N"
  IC50: "> 3160 nM"
- compound: "CCNC(=O)CC1N=C(c2ccc(Cl)cc2)c2cc(OC)ccc2-n2c(C)nnc21 (stereo not drawn) + CNCc1ccccc1-c1csc(C(C)Nc2nc(C)nc3cc(OC)c(OC)cc23)c1"
  IC50: "< 31.6 nM"

Kindly review the next compound as well.
Look up and state reported IC50 for Cn1ncnc1[C@H]1c2n[nH]c(=O)c3cc(F)cc(c23)N[C@@H]1c1ccc(F)cc1 + C=CC(=O)N1CCN(c2nc(OCC3CCCN3C)nc3c2CCN(c2cccc4cccc(C)c24)C3)CC1CC#N
> 100 nM
